Every entry's value here was drawn from the supplement of paper PMC8149375.

System: ACHN
Assay: AUC of dose-response viability curve, drug + dasatinib, normalised to DMSO (arbitrary (AUC of normalised viability)); higher = less growth inhibition
Details: treatment: drug + dasatinib (fixed dose, not stated); 5 days
Entries and their AUC of dose-response viability curve values follow.

| COMPOUND | AUC of dose-response viability curve |
| --- | --- |
| Cc1ccc(NC(=O)c2ccc(CN3CCN(C)CC3)cc2)cc1Nc1nccc(-c2cccnc2)n1 [Imatinib (Gleevec)] + Cc1nc(Nc2ncc(C(=O)Nc3c(C)cccc3Cl)s2)cc(N2CCN(CCO)CC2)n1 [dasatinib] | 2.06 |
| N#Cc1c(O)c2c(-c3ccc(-c4ccccc4O)cc3)csc2[nH]c1=O + Cc1nc(Nc2ncc(C(=O)Nc3c(C)cccc3Cl)s2)cc(N2CCN(CCO)CC2)n1 [dasatinib] | 2.25 |
| C[C@]1(O)C[C@@H](c2nc(-c3ccc4ccc(-c5ccccc5)nc4c3)c3c(N)nccn32)C1 [Linsitinib (OSI-906)] + Cc1nc(Nc2ncc(C(=O)Nc3c(C)cccc3Cl)s2)cc(N2CCN(CCO)CC2)n1 [dasatinib] | 1.89 |
| Cc1ccccc1-n1c(Cn2cnc3c(N)ncnc32)nc2cccc(C)c2c1=O + Cc1nc(Nc2ncc(C(=O)Nc3c(C)cccc3Cl)s2)cc(N2CCN(CCO)CC2)n1 [dasatinib] | 1.87 |
| CCCCCCCCCCCCc1ccc(S(=O)(=O)Nc2nncs2)cc1 [PHT-427] + Cc1nc(Nc2ncc(C(=O)Nc3c(C)cccc3Cl)s2)cc(N2CCN(CCO)CC2)n1 [dasatinib] | 1.87 |
